- TESTED SYSTEM: MMP2 (Homo sapiens)
- Sequence (P08253 110-660): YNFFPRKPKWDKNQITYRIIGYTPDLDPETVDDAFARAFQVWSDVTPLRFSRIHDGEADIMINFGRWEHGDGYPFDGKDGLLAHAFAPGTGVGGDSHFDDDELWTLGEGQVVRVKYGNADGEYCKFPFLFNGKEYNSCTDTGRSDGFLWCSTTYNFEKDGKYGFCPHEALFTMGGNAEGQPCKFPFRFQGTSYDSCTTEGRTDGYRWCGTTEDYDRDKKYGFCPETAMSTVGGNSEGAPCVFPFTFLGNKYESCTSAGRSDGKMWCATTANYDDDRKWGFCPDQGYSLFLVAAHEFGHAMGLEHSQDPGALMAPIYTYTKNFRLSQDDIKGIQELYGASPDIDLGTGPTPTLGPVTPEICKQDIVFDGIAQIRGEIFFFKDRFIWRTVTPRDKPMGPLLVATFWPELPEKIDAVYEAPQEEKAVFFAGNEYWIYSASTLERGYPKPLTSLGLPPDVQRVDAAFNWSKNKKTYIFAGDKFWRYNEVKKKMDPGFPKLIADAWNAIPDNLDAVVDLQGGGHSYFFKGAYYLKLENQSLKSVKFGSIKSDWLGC
- MEASUREMENT DESCRIPTION: Inhibitory effects on human MMP2 (Method 1), enzyme assay with MOCAc-Pro-Leu-Gly-Leu-A2pr(Dnp)-Ala-Arg-NH2 substrate, 96-well
- Format: biochemical
- STUDY CONDITIONS: Test Example No. 1-1 (Method 1, 96-well microplate); read-out: Human MMP2, IC50
*1 amine or outer side, *2 acyl side, *3 side chain or, on linkers, in order; H or OH if unused. Where a SMILES comes first, the peptide text is derived from it. [ ]: non-standard residue; d: D form. The star is where a group is joined. Benzoyl(4-OPh(4-CONH2)) = NC(=O)c1ccc(Oc2ccc(C(=O)*)cc2)cc1; X4 = NC(=O)CCCCNC(=O)c1ccc(Oc2ccc(C(=O)*)cc2)cc1; Benzoyl(4-OPh) = O=C(c1ccc(Oc2ccccc2)cc1)*; εLys = N[C@@H](CCCCN[*:1])C(=O)[*:2]; NMeI = CC[C@H](C)[C@H](NC)C(=O)O; NMeE = CN[C@@H](CCC(=O)O)C(=O)O; NMeN = CN[C@@H](CC(N)=O)C(=O)O; β3hP = O=C(O)C[C@@H]1CCCN1; Orn = NCCC[C@H](N)C(=O)O; Dab = NCC[C@H](N)C(=O)O; Ava = NCCCCC(=O)O; GABA = NCCCC(=O)O
MEASURED PROPERTY: IC50 (nM)
// units = nM; emit number, no label

COMPOUND	IC50, nM
CC[C@H](C)[C@@H](C(=O)NCCCC[C@H](N)C(N)=O)N(C)C(=O)[C@H](CC(C)C)NC(=O)[C@H](CCN)NC(=O)[C@H](CC(=O)O)NC(=O)[C@H](NC(=O)[C@@H](N)CCCNC(=O)c1ccc(Oc2ccc(C(N)=O)cc2)cc1)[C@H](C)O [Compound 554] (H-[Orn](Benzoyl(4-OPh(4-CONH2)))[dT]D[Dab]L[NMeI][εLys]-NH2)	0.89
CC(C)C[C@H](NC(=O)[C@H](CCN)NC(=O)[C@H](CC(=O)O)NC(=O)[C@H](CCC(=O)O)NC(=O)CCCCNC(=O)c1ccc(Oc2ccc(C(=O)NCCCCC(N)=O)cc2)cc1)C(=O)N(C)[C@@H](CCC(=O)O)C(=O)N1CCC[C@H]1CC(N)=O [Compound 199] ({X4-Ava}-ED[Dab]L[NMeE][β3hP]-NH2; N-terminus assumed)	1.4
CC(C)C[C@H](NC(=O)[C@H](CCN)NC(=O)[C@H](CC(=O)O)NC(=O)[C@H](CC(N)=O)N(C)C(=O)CCCNC(=O)c1ccc(Oc2ccccc2)cc1)C(=O)N(C)[C@@H](CCC(=O)O)C(=O)N1CCC[C@H]1CC(N)=O [Compound 112] ({Benzoyl(4-OPh)-GABA}-[NMeN]D[Dab]L[NMeE][β3hP]-NH2; N-terminus assumed)	0.55
CC(C)C[C@H](NC(=O)[C@H](CCN)NC(=O)[C@H](CC(=O)O)NC(=O)[C@@H](NC(=O)CCCNC(=O)c1ccc(Oc2ccccc2)cc1)C(C)C)C(=O)N(C)[C@@H](CCC(=O)O)C(=O)N1CCC[C@H]1CC(N)=O [Compound 143] ({Benzoyl(4-OPh)-GABA}-VD[Dab]L[NMeE][β3hP]-NH2; N-terminus assumed)	2.6
CC(C)C[C@H](NC(=O)[C@@H]1C[C@H](N)CN1C(=O)CC[C@@H](NS(=O)(=O)c1ccc(NC(=O)c2ccc(C(N)=O)cc2)cc1)C(=O)O)C(=O)N(C)[C@@H](CCC(=O)O)C(=O)NCCCCC(N)=O	0.22

Now turn to the next compound.
I have this compound here, CC[C@H](C)[C@@H](C(=O)N1CCC[C@H]1C(N)=O)N(C)C(=O)[C@H](CC(C)C)NC(=O)[C@H](C)NC(=O)[C@H](CC(=O)O)NC(=O)[C@@H](CC(N)=O)NC(=O)CCCNC(=O)c1ccc(Oc2ccccc2)cc1 [Compound 114] ({Benzoyl(4-OPh)-GABA}-[dN]DAL[NMeI]P-NH2; N-terminus assumed) , and I need its recorded IC50.
0.072
